Examples of molecules with documented TGI follow.
System: OVCAR-5 ovarian
Assay: NCI tumour cell line growth inhibition, 48 h

// known answers, use as guide
C/C(=N\NC(N)=S)c1cc(C)c(C)cc1C; 46.5 µM
Clc1cc2c(cc1Cl)Oc1cc(Cl)c(Cl)cc1O2; > 0.625 µM
O=C1NC(=O)C(CC(C(=O)C(=O)Nc2ccccc2Cl)C(=O)c2ccc3ccccc3c2)C(=O)N1 (stereo not given); > 100 µM
S=C1Cc2c(-c3ccc(Cl)cc3)cc(-c3ccccc3)nc2-c2ccccc2N1; 92.9 µM

input: Returns the measured TGI for the input molecule. Input: CC(C)CC[C@H](O)[C@@H](C)[C@H]1[C@@H](OC2OC(C)C(O)C(O)C2O)C[C@H]2[C@@H]3CC=C4C[C@@H](O)CC[C@]4(C)[C@H]3[C@@H](O)C[C@]12C (stereo not given in full)
output: > 100 µM

###

Examples of compounds with documented TGI follow.
Tested on: HT29 colon
Experiment: NCI tumour cell line growth inhibition, 48 h

Clc1ccc(/C=C/c2cc(N3CCOCC3)c3cc(Cl)c(Cl)cc3n2)cc1; > 100 µM
COc1ccc2c(c1O)C13CCN(C)C(C2)C1CCC1(C3)OCCO1 (stereo not given); > 100 µM

input: Returns the measured TGI for the input compound. Input: CC(=O)NNc1nc(C)c(C(/C=C/c2ccc([N+](=O)[O-])cc2)=N/N)s1
output: > 100 µM

input: Returns the measured TGI for the input compound. Input: N#Cc1cccc(OCc2nc(N)nc(N)c2-c2ccc(Cl)c(Cl)c2)c1
output: > 100 µM

input: Returns the measured TGI for the input compound. Input: COC(=O)C1=C(C(=O)OC)C(Cc2ccccc2)(OO)OC1=O (stereo not given)
output: 24.2 µM

input: Returns the measured TGI for the input compound. Input: Cc1ccc(S(=O)(=O)n2c3c(c4ccccc42)CCN2C(=O)C(S(=O)(=O)c4ccccc4)=CCC32)cc1 (stereo not given)
output: 0.48 µM

input: Returns the measured TGI for the input compound. Input: CC(C)[C@H]1CC[C@H]2[C@@H](CC[C@H]3[C@](C)(CN)CCC[C@]23C)C1
output: 3.3 µM

input: Returns the measured TGI for the input compound. Input: COCO[C@@H]1C[C@H]2C(=O)N(COC)c3ccccc3C(=O)N2C1
output: > 100 µM

input: Returns the measured TGI for the input compound. Input: C=C1[C@H](OC(=O)C(C)C)[C@]23CC4(O)[C@@H]5[C@@]6(C)CCC[C@]57C([C@@H]2C[C@@]1(O)[C@H](O)[C@@H]73)N4C6
output: > 100 µM

input: Returns the measured TGI for the input compound. Input: Cc1n[nH]c(=O)n1C1CCCC1
output: > 100 µM

input: Returns the measured TGI for the input compound. Input: Oc1ccc(CN2CCC(N3CCOCC3)CC2)c2cccnc12
output: > 100 µM

###

Examples of compounds with documented TGI follow.
Tested on: CAKI-1 renal
Experiment: NCI tumour cell line growth inhibition, 48 h
Report the value in µM with no unit label.

// known answers, use as guide
CC(=O)Nc1ccc2c3c(cc(O)c2c1)N(C(=O)CCCCCC(=O)N1CC(CCl)c2c1cc(O)c1cc(NC(C)=O)ccc21)CC3CCl (centres undefined); 0.918
COC(=O)C1=C(C)NC(C)=C(C(=O)OC)C1/C=C(\Cl)c1ccc(Cl)c(Cl)c1; 27.2
O=C1CS(=O)(=O)C(c2cccc(Oc3ccccc3)c2)N1c1cccc(Cl)c1 (centres undefined); 83.5

Now consider the entry below.
input: Returns the measured TGI for the input compound. Input: C/C=C/C/C=C/CCC(=O)[C@H]1O[C@H]1C(N)=O
output: 36.5

###

Examples of compounds with documented TGI follow.
Test system: CAKI-1 renal
Test: NCI tumour cell line growth inhibition, 48 h

// known answers, use as guide
CCOC(=O)[C@]12C(=C(c3ccccc3)O[C@H]3C=CCC[C@H]31)C(=O)C(=O)N2c1ccccc1; > 100 µM
CCOC(=O)C[C@@H]1C2(C=C[C@@]13CO3)OCC(C)(C)CO2; > 100 µM
CCCN1CC=C(c2cc(C(=O)OCC)[nH]c2-c2cc(C)no2)C1=O; > 100 µM

Now consider the entry below.
input: Returns the measured TGI for the input compound. Input: Cc1cc(NS(=O)(=O)c2ccc(NC(=O)c3ccc4[nH]c5ccccc5c(=O)c4c3)cc2)no1
output: > 100 µM

###

System: MCF7 breast
Assay: NCI tumour cell line growth inhibition, 48 h
Examples of compounds with documented TGI follow.

CCN1/C(=C/C=C/c2n(-c3ccccc3)c3ccc(-c4nc5ccccc5s4)cc3[n+]2CC)N(c2ccccc2)c2ccc(-c3nc4ccccc4s3)cc21; > 50 µM
CN(C)Cc1cc(N=Nc2cccc(Cl)c2)ccc1O; 29 µM
N#Cc1c(NC(=S)Nc2ccc(Cl)cc2)sc2c1CCCC2; > 100 µM

input: Returns the measured TGI for the input compound. Input: O=C1C2C(C(=O)[N]1[Hg][c]1cccs1)C1(Cl)C(Cl)=C(Cl)C2(Cl)C1(Cl)Cl (configuration not stated)
output: 1.94 µM

input: Returns the measured TGI for the input compound. Input: COc1ccc2c(c1O)C13CCN(C)C(C2)C1CCC1(C3)OCCO1 (configuration not stated)
output: > 100 µM

input: Returns the measured TGI for the input compound. Input: CN(C)c1nc2oc(-c3ccccc3)c(-c3ccccc3)c2c2nncn12
output: > 100 µM

input: Returns the measured TGI for the input compound. Input: Nc1cc(C(=O)O)[nH]c(=O)n1
output: > 100 µM

###

System: SK-OV-3 ovarian
Experiment: NCI tumour cell line growth inhibition, 48 h
measurement type: TGI

// known answers, use as guide
O=c1cc(-c2ccccc2)oc2cc(O)c(O)c(O)c12; > 100 µM
N#Cc1ncc(-c2ccc(C(F)(F)F)cc2)c(NCc2cc(C(F)(F)F)cc(C(F)(F)F)c2)n1; 47.3 µM
O=C1[C@@H]2C(c3ccc(Cl)cc3Cl)=NO[C@@H]2C(=O)N1c1ccc(Cc2ccc(N3C(=O)[C@H]4C(c5ccc(Cl)cc5Cl)=NO[C@H]4C3=O)cc2)cc1; > 100 µM
CCN(CC)CCCn1cnc2ncccc2c1=O; > 100 µM

Now consider the entry below.
input: Test system SK-OV-3 ovarian; read-out TGI; what value for O=[N+]([O-])c1ccccc1N=Nc1c(O)[nH]c2ccc(Br)cc12 ?
output: > 77.3 µM

###

Tested on: OVCAR-4 ovarian
Assay: NCI tumour cell line growth inhibition, 48 h
Examples of compounds with documented GI50 follow.

// known answers, use as guide
O=S(=O)(Cc1ccc(Cl)cc1Cl)c1ccc(Cl)cc1; 5.73 µM
CN(c1cc2ncc(=O)[nH]c2cc1NC(N)=NCc1ccc(Cl)cc1)C1CCCCC1; 6.21 µM
N/C(=C\C(=O)n1nc(-c2ccccc2)cc1N)c1ccccc1; 12.5 µM
COc1cc2c3c(n(CCCN(CCN)CCCn4c5c(c6cc(OC)c(OC)cc6c4=O)C(=O)c4cc6c(cc4-5)OCO6)c(=O)c2cc1OC)-c1cc2c(cc1C3=O)OCO2; 13.3 µM
Clc1cc2c(cc1Cl)Oc1cc(Cl)c(Cl)cc1O2; > 0.625 µM
O=C(Nc1ccc(F)cc1)Nc1ccccc1CNc1nc(Nc2ccc(OCCN3CCCC3)cc2)ncc1Cl; 1.11 µM

Now consider the entry below.
input: Test system OVCAR-4 ovarian; read-out GI50; what value for Oc1ccc(CN2CCC(N3CCOCC3)CC2)c2cccnc12 ?
output: 22.9 µM

###

Examples of molecules with documented TGI follow.
Test system: MDA-MB-435
Test: NCI tumour cell line growth inhibition, 48 h
Report the value in µM with no unit label.

// known answers, use as guide
CN(C)Cc1cc(N=Nc2cccc(Cl)c2)ccc1O; 15.8
C=[N+](CNC(=O)CNC(=O)C(Cc1ccc([N+](=O)[O-])cc1)NC(=O)OC(C)(C)C)C(=O)CNC(=O)C(Cc1ccc([N+](=O)[O-])cc1)NC(=O)OC(C)(C)C (centres undefined); 62.7
CC(C)c1c(C(=O)Nc2ccccc2)c(-c2ccccc2)c(-c2ccc(F)cc2)n1CC[C@@H]1CC=CC(=O)O1; 3.27
CCCCCCNC(=O)c1cc(CCc2cc(O)ccc2O)ccc1O; 19.6

Now consider the entry below.
input: Returns the measured TGI for the input molecule. Input: COc1cc(C(=O)N2N=C(c3ccc(S(C)(=O)=O)cc3)CC2c2ccco2)cc(OC)c1OC (centres undefined)
output: 7.27

###

Test system: SNB-19 CNS
Test: NCI tumour cell line growth inhibition, 48 h
Examples of compounds with documented GI50 follow.

// known answers, use as guide
COc1cc(-c2nc3sccn3c2-c2ccnc(NCCNS(=O)(=O)c3ccc(Cl)cc3)n2)ccc1F; 74 µM
N=C(N)c1ccc(OCCOCCOc2ccc(C(=N)N)cc2)cc1; 80.6 µM
CC(=O)O[C@@]12CO[C@@H]1C[C@H](O)[C@@]1(C)C(=O)[C@H](O)C3=C(C)[C@@H](OC(=O)[C@H](O)[C@@H](NC(=O)OC(C)(C)C)c4ccccc4)C[C@@](O)([C@@H](OC(=O)c4ccccc4)[C@H]21)C3(C)C; 0.00175 µM
CC(=O)Nc1ccc(/C=C/C(=O)c2ccccc2)cc1; 13.5 µM
COc1ccc2c(c1)=C(C=C1C=CN(O)C=C1)C(=O)N=2; 10.6 µM
O=S(=O)(Cc1ccc(Cl)cc1Cl)c1ccc(Cl)cc1; 1.38 µM
COC(=O)C1=C(C)NC(C)=C(C(=O)OC)C1/C=C(\Cl)c1ccc(Cl)c(Cl)c1; 18.8 µM
CCCCCCc1cc2cc(-c3nc4ccccc4[nH]3)c(=Nc3ccccc3C)oc2cc1O; 3.58 µM

input: Test system SNB-19 CNS; read-out GI50; what value for S=C(N/N=C(/c1ccccc1)c1ccccn1)N1CCCCC1 ?
output: 1.1 µM

input: Test system SNB-19 CNS; read-out GI50; what value for [Cl][Sn]([Cl])([c]1ccccc1)[c]1ccccc1 ?
output: 14.6 µM
